run-description: Stability of cannabinoid compounds and Vitamin E components in Beverage 1 (AB White) by LCMSMS
Format: physicochemical
condition-context: AB White stored at 8° C.; 29 days
Here, each record is paired with measured Stability of Plant-Derived Cannabinoid Compounds in AB White, 8° C. data.
reported-property: Stability of Plant-Derived Cannabinoid Compounds in AB White, 8° C. (µg/mL)

                                   compound  value_reported
0  C=C(C)[C@@H]1CCC(C)=C[C@H]1c1c(O)cc(CCC)cc1O [CBDV, cannabidivarin]           0.151
1  C=C(C)[C@@H]1CCC(C)=C[C@H]1c1c(O)cc(CCCCC)cc1O [CBD, cannabidiol, reference compound]           28.24
2  CCCc1cc(O)c2c(c1)OC(C)(C)[C@@H]1CCC(C)=C[C@@H]21 [THCV, delta-9-tetrahydrocannabivarin]            3.52
3  CCCCCc1cc2c(c(O)c1C(=O)O)[C@@H]1C=C(C)CC[C@H]1C(C)(C)O2 [D9 THCA, delta-9-tetrahydrocannabinolic acid]           0.939

====

run-description: Stability of cannabinoid compounds and Vitamin E components in Beverage 1 (AB White) by LCMSMS
Format: physicochemical
condition-context: AB White stored at 21-25° C.; 570 days
Here, each record is paired with measured Stability of Plant-Derived Cannabinoid Compounds in AB White, 21-25° C. data.
reported-property: Stability of Plant-Derived Cannabinoid Compounds in AB White, 21-25° C.

In [3]: df
Out[3]:
                                   compound  value_reported
0  CCCCCc1cc(O)c2c(c1)OC1(C)CCC3C1C2C3(C)C (stereo not shown) [CBL, cannabicyclol]     0.505 µg/mL
1  CCCCCc1cc2c(c(O)c1C(=O)O)[C@@H]1C=C(C)CC[C@H]1C(C)(C)O2 [D9 THCA, delta-9-tetrahydrocannabinolic acid]     0.877 µg/mL
2  C=C(C)[C@@H]1CCC(C)=C[C@H]1c1c(O)cc(CCC)cc1O [CBDV, cannabidivarin]     0.138 µg/mL
3  CCCCCc1cc(O)c2c(c1)OC(C)(C)[C@@H]1CCC(C)=C[C@@H]21 [D9 THC, delta-9-tetrahydrocannabinol, reference compound]      11.2 µg/mL

====

run-description: Stability of cannabinoid compounds and Vitamin E components in Beverage 1 (AB White) by LCMSMS
Format: physicochemical
condition-context: AB White stored at 21-25° C.; 5 days
Here, each record is paired with measured Stability of Plant-Derived Cannabinoid Compounds in AB White, 21-25° C. data.
reported-property: Stability of Plant-Derived Cannabinoid Compounds in AB White, 21-25° C.

In [3]: df
Out[3]:
                                   compound  value_reported
0  C=C(C)[C@@H]1CCC(C)=C[C@H]1c1c(O)cc(CCC)cc1O     0.144 µg/mL
1  CCCCCc1cc(O)c2c(c1)OC1(C)CCC3C1C2C3(C)C (stereo not drawn)     0.530 µg/mL
2  CCCc1cc(O)c2c(c1)OC(C)(C)[C@@H]1CCC(C)=C[C@@H]21 [THCV, delta-9-tetrahydrocannabivarin]      3.55 µg/mL
3   CCCCCc1cc(O)c(C/C=C(\C)CCC=C(C)C)c(O)c1      4.89 µg/mL
4  CCCCCc1cc(O)c2c(c1)OC(C)(C)[C@@H]1CCC(C)=C[C@@H]21 [D9 THC, delta-9-tetrahydrocannabinol, reference compound]      12.1 µg/mL
5  CCCCCc1cc2c(c(O)c1C(=O)O)[C@@H]1C=C(C)CC[C@H]1C(C)(C)O2 [D9 THCA, delta-9-tetrahydrocannabinolic acid]     0.958 µg/mL

Origin of values: patent US20260130395A1
